test system: biotinyl-Leu-oxazolone; experiment: self-aminoacylation, catalytic enhancement (BLO) (fold over background); higher = more active; k-Seq, kA / k0A0; sequences stand for … in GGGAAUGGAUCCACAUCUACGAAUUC…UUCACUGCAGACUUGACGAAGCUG
Fewer inactive variants are shown than the library holds.
Entries and their self-aminoacylation values follow.
When you answer, write just the number.

{"columns": ["Sequence entry", "self-aminoacylation"],
 "data": [
  ["CUACUUCAAACAAUCAGUAUG [Fam1A.1 aminoacylation ribozyme variant]", 0.777],
  ["CCGCACUUCAAGCGAUCGGUC [Fam1B.1 aminoacylation ribozyme variant]", 1.3]
]}

Ask: Given the entry AUGACCUUGGUCAUCGAGUGA [Fam2.1 aminoacylation ribozyme variant] , report its measured self-aminoacylation.
Reply: 5.27

Ask: Given the entry CUAUUUCAAACAAUCGGACUG [Fam1A.1 aminoacylation ribozyme variant] , report its measured self-aminoacylation.
Reply: 0.803

Ask: Given the entry AUUACACUCGUCAUCGAGUGA [Fam2.1 aminoacylation ribozyme variant] , report its measured self-aminoacylation.
Reply: 3.87

Ask: Given the entry AAGUUCGCUUAUAGUCGCAAG [Fam3.1 aminoacylation ribozyme variant] , report its measured self-aminoacylation.
Reply: 1.84

Ask: Given the entry AUUCACCAAAGUCAUCGGGUG [Fam2.2 aminoacylation ribozyme variant] , report its measured self-aminoacylation.
Reply: 19.5

Ask: Given the entry CUACUUCAAACAACCAGUCUG [Fam1A.1 aminoacylation ribozyme variant] , report its measured self-aminoacylation.
Reply: 0.668

---

test system: biotinyl-Phe-oxazolone; assay: self-aminoacylation, catalytic enhancement (BFO) (fold over background); higher = more active; k-Seq, kA / k0A0; sequences stand for … in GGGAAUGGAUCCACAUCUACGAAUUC…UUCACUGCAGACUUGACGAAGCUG
This sample holds only a part of the variants without activity.
Entries and their self-aminoacylation values follow.
When you answer, write just the number.

{"columns": ["Sequence entry", "self-aminoacylation"],
 "data": [
  ["AUUAACCUAGUUCAUCGGGUG [Fam2.2 aminoacylation ribozyme variant]", 12.3],
  ["CCAGACUUCAAGGAAUCGGUC [Fam1B.1 aminoacylation ribozyme variant]", 6.35],
  ["CUACUUCAAACAACCGGCCUG [Fam1A.1 aminoacylation ribozyme variant]", 2.27]
]}

Could you now consider this next sequence?
Ask: Given the entry CAACUUCAAACGAUCGGUCUG [Fam1A.1 aminoacylation ribozyme variant] , report its measured self-aminoacylation.
Reply: 2.25

---

Entries and their self-aminoacylation values follow.
tested on: biotinyl-Ile-oxazolone; test: self-aminoacylation, catalytic enhancement (BIO) (fold over background); higher = more active; k-Seq, kA / k0A0; sequences stand for … in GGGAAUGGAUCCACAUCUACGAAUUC…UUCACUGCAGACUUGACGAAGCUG
Fewer inactive variants are shown than the library holds.
When you answer, write just the number.

For orientation, consider the following solved cases.
{"columns": ["Sequence entry", "Reading"],
 "data": [
  ["AAGUUUGCUAAGAGUCGCAAG [Fam3.1 aminoacylation ribozyme variant]", 0.748],
  ["GUUCACCUAGGUCAUCGAGUG [Fam2.2 aminoacylation ribozyme variant]", 8.09],
  ["CUACCGCAAACAAUCGGUCUG [Fam1A.1 aminoacylation ribozyme variant]", 0.857],
  ["AAGUUAGCUAAUAGUCGCAAA [Fam3.1 aminoacylation ribozyme variant]", 2.01],
  ["CUAUUUCGAACAAUCGGUCUG [Fam1A.1 aminoacylation ribozyme variant]", 0.814]
]}

Could you now consider this next sequence?
Ask: Lookup: self-aminoacylation / biotinyl-Ile-oxazolone / CCACACGUCAAGCAAUCGUUC [Fam1B.1 aminoacylation ribozyme variant]
Reply: 0.799

// data source = the supplement of paper PMC9233669
